From: paper PMC3555856

Molecular target: α-glucosidase (EC 3.2.1.20, from baker's yeast) (Saccharomyces cerevisiae, UniProt P53341)
Construct: purchased Sigma-Aldrich Chemie (Germany)
Sequence (P53341 whole entry): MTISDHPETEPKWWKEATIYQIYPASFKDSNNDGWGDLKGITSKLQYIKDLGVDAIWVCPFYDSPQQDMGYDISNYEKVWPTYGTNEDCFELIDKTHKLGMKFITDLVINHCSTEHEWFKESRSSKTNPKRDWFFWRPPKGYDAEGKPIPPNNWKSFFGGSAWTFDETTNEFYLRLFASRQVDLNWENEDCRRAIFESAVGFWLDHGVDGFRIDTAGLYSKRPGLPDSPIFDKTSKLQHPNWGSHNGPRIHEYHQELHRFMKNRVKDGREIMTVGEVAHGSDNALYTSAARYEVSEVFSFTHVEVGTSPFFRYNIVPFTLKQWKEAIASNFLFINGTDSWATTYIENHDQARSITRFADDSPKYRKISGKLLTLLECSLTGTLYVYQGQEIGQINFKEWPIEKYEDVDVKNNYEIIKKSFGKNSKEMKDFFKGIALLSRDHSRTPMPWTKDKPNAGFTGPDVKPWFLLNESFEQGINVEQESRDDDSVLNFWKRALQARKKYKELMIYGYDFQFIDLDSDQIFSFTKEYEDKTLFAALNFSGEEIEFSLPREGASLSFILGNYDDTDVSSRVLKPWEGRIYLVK
Experiment: biochemical
Settings: mean ± SD of three experiments; pH 6.9, 37°C; read-out: α-Glucosidase inhibitory activity IC50
The threshold is 5 µM. Values of IC50 beneath it are tagged condition met; values meeting or exceeding it are tagged condition not met.

Study these solved cases before continuing.
CC(=O)OC[C@@H]1O[C@@H](Oc2c(-c3cc(O)c(O)c(O)c3)oc3cc(O)cc(O)c3c2=O)[C@H](O)[C@H]1OC(C)=O    condition not met
Oc1cc(O)c2c(c1)OC(c1ccc(O)c(O)c1)C(O)C2 (single isomer, unassigned; (+)) [Compound 7, (+) catechin]    condition not met
O=c1c(O[C@@H]2O[C@@H](CO)[C@H](O)[C@H]2O)c(-c2cc(O)c(O)c(O)c2)oc2cc(O)cc(O)c12 [Compound 12, myricetin 3-O-α-L-arabinofuranoside]    condition met
O=C(/C=C/c1ccc(O)c(O)c1)NCCc1ccc(O)cc1 [Compound 3, N-trans-caffeoyl-tyramine]    condition met
O=c1c(OC2OC(CO)C(O)C(O)C2O)c(-c2cc(O)c(O)c(O)c2)oc2cc(O)cc(O)c12 [Compound 9, myricetin 3-O-β-D-galactopyranoside]    condition met

Now turn to the next compound.
Q: Please check: IC50 for CC(=O)OC1C(CO)OC(Oc2c(-c3ccc(O)c(O)c3)oc3cc(O)cc(O)c3c2=O)C1O (stereo not shown) , strictly under 5 µM or not?
Result: condition met

###

Target: α-glucosidase (EC 3.2.1.20, from baker's yeast) (Saccharomyces cerevisiae)
Construct: purchased Sigma-Aldrich Chemie (Germany)
Assay: biochemical
Conditions: α-Glucosidase inhibitory activity IC50, mean ± SD of three experiments; pH 6.9, 37°C
observable: pIC50
Scale note: pIC50 = -log10(concentration in M).

The examples below pair each entry with its known result.
Oc1cc(O)c2c(c1)OC(c1cc(O)c(O)c(O)c1)C(O)C2 (single isomer, unassigned; (-)) [Compound 8, (-) gallocatechin]    6.00
O=c1c(O[C@@H]2O[C@@H](CO)[C@H](O)[C@H]2O)c(-c2ccc(O)c(O)c2)oc2cc(O)cc(O)c12 [Compound 13, quercetin 3-O-α-L-arabinofuranoside]    5.12

Q: May I ask what pIC50 has been recorded for "O=c1c(O)c(-c2cc(O)c(O)c(O)c2)oc2cc(O)cc(O)c12" ?
Result: 5.89
